Target Of Assay: UniProtKB P17948
Sequence (P17948 whole entry): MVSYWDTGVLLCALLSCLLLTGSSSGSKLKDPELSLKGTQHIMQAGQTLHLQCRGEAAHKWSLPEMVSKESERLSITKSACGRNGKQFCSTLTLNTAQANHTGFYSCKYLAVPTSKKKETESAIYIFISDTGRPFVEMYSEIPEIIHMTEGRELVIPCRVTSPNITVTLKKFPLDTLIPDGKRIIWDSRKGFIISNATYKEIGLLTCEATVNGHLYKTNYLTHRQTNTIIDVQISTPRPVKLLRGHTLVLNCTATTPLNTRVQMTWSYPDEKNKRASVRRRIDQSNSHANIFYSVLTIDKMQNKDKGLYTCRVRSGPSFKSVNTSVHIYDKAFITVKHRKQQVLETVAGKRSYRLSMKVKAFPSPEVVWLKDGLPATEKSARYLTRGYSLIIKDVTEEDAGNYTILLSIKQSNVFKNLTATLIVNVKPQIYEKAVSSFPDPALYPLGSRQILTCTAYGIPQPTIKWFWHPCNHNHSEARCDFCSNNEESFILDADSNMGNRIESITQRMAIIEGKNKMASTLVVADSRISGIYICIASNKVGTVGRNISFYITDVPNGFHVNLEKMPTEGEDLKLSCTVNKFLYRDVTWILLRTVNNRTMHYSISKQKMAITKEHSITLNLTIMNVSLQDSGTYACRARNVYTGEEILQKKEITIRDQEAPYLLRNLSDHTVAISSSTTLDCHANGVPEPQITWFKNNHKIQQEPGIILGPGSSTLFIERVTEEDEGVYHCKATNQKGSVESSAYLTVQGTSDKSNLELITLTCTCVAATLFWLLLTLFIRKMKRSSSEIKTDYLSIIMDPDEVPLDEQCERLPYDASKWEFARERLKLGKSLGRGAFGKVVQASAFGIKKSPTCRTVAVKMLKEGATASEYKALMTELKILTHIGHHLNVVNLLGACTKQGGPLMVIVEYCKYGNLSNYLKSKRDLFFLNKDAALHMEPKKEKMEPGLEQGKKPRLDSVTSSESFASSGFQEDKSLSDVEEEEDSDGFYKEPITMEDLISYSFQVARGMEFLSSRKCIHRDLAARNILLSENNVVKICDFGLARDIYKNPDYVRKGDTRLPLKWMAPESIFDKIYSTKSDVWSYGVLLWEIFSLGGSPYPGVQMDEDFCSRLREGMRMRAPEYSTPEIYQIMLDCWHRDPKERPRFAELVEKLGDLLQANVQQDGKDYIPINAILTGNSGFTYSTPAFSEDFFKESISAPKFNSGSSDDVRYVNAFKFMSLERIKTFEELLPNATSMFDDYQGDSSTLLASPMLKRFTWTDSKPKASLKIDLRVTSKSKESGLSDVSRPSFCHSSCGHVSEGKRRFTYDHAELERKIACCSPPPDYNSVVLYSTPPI
Test Protocol: Inhibition of VEGFR-1 at 50 uM after 1 hrs by luminescence assay
Reported Endpoint: inhibition

// worked examples, inhibition included
CN[C@@H]1C[C@H]2O[C@@](C)([C@@H]1OC)n1c3ccccc3c3c4c(c5c6ccccc6n2c5c31)C(=O)NC4; 93.4%
Cc1ccc(-c2nc3cc(NC(=O)CCl)ccc3[nH]2)cc1; 7.3%

Next, consider the following compound.
Short answer please: inhibition, UniProtKB P17948, entry Cc1ccc(-c2nc3cc(NC(=O)CCCl)ccc3[nH]2)cc1 3.3%

---

Below is a list of entries, each paired with its recorded inhibition value.
Target Of Assay: Platelet-derived growth factor receptor alpha (Homo sapiens)
Test Protocol: Inhibition of PDGFR-alpha at 50 uM after 1 hrs by luminescence assay
Express it in %; write the number only.

Cn1cccc1-c1nc2cc(NC(=O)CCl)ccc2[nH]1; 18.7
Cc1ccc(-c2nc3cc(NC(=O)CCl)ccc3[nH]2)cc1; 42.7
CN[C@@H]1C[C@H]2O[C@@](C)([C@@H]1OC)n1c3ccccc3c3c4c(c5c6ccccc6n2c5c31)C(=O)NC4; 92.6

Next, consider the following compound.
Short answer please: inhibition, Platelet-derived growth factor receptor alpha (Homo sapiens), entry Cc1ccc(-c2nc3cc(NC(=O)CCCl)ccc3[nH]2)cc1 17

---

Target Of Assay: Phosphatidylinositol 4,5-bisphosphate 3-kinase catalytic subunit alpha isoform (Homo sapiens)
Test Protocol: Inhibition of PI3K-alpha at 50 uM after 1 hrs by luminescence assay
Active and inactive are the calls of the source. The calls are words filed in the database; no cut-off is given here.
Reported Endpoint: inhibition

Cc1ccc(-c2nc3cc(NC(=O)CCl)ccc3[nH]2)cc1; inactive
Cc1ccc(-c2nc3cc(NC(=O)CCCl)ccc3[nH]2)cc1; inactive
CN[C@@H]1C[C@H]2O[C@@](C)([C@@H]1OC)n1c3ccccc3c3c4c(c5c6ccccc6n2c5c31)C(=O)NC4; 97%
Cn1cccc1-c1nc2cc(NC(=O)CCl)ccc2[nH]1; 3.7%
